# Tested on: Danio rerio larvae (5 dpf)
# ASSAY_METHOD_TEXT: combined upward orientation toward moving lines (periods 7-14) minus DMSO control (percentage points); higher = more orientation with moving lines than DMSO larvae
# CONDITIONS: 10 µM; exposure time: 3 h pre-incubation + 3 h imaging
Where a name gives a salt, the structure may show the parent alone.
Listed molecules paired with reported combined upward orientation toward moving lines
QUANTITY_MEASURED: combined upward orientation toward moving lines

- MOLECULE: "CO[C@H]1/C=C/O[C@@]2(C)Oc3c(C)c(O)c4c(O)c(c5c(nc6cc(C)ccn65)c4c3C2=O)NC(=O)/C(C)=C\\C=C\\[C@H](C)[C@H](O)[C@@H](C)[C@@H](O)[C@@H](C)[C@H](OC(C)=O)[C@@H]1C"
  VALUE: -3.95
- MOLECULE: "CN/C(=N\\CCSCc1nc[nH]c1C)NC#N"
  VALUE: -0.665
- MOLECULE: "CC(C)CN(C[C@@H](O)[C@H](Cc1ccccc1)NC(=O)O[C@H]1CO[C@H]2OCC[C@H]21)S(=O)(=O)c1ccc(N)cc1"
  VALUE: 0.247
- MOLECULE: "CC(C)Nc1cccnc1N1CCN(C(=O)c2cc3cc(NS(C)(=O)=O)ccc3[nH]2)CC1 [Delavirdine mesylate]"
  VALUE: -7.64
- MOLECULE: "CN(C)CC/C=C1/c2ccccc2COc2ccc(CC(=O)O)cc21 [Olopatadine hydrochloride]"
  VALUE: -3.54
- MOLECULE: "Clc1ccccc1C(c1ccccc1)(c1ccccc1)n1ccnc1"
  VALUE: -3.91
- MOLECULE: "CC(C)c1nc(N(C)S(C)(=O)=O)nc(-c2ccc(F)cc2)c1/C=C/[C@@H](O)C[C@@H](O)CC(=O)O"
  VALUE: 4.67

====

# Tested on: Danio rerio larvae (5 dpf)
# ASSAY_METHOD_TEXT: habituation (activity change first vs second 5 min of 1-s interval sound, period 17) minus DMSO control (percentage points); higher = larger habituation measure than DMSO larvae
# CONDITIONS: 10 µM; exposure time: 3 h pre-incubation + 3 h imaging
QUANTITY_MEASURED: habituation

- COMPOUND: "CCc1c2c(nc3ccc(OC(=O)N4CCC(N5CCCCC5)CC4)cc13)-c1cc3c(c(=O)n1C2)COC(=O)[C@]3(O)CC"
  VALUE: 9.09
- COMPOUND: "Cc1nc(-c2ccc(OCC(C)C)c(C#N)c2)sc1C(=O)O [Febuxostat]"
  VALUE: -3.37
- COMPOUND: "CC(C)C(=O)OCC(=O)[C@@]12O[C@H](C3CCCCC3)O[C@@H]1C[C@H]1[C@@H]3CCC4=CC(=O)C=C[C@]4(C)[C@H]3[C@@H](O)C[C@@]12C [Ciclesonide]"
  VALUE: 0.71
- COMPOUND: "CNC(=O)c1ccccc1Sc1ccc2c(/C=C/c3ccccn3)n[nH]c2c1 [Axitinib]"
  VALUE: 0.305
- COMPOUND: "CCCCC1=NC2(CCCC2)C(=O)N1Cc1ccc(-c2ccccc2-c2nnn[nH]2)cc1 [Irbesartan]"
  VALUE: -1.18
- COMPOUND: "Nc1nc2[nH]cc(CCc3ccc(C(=O)N[C@@H](CCC(=O)O)C(=O)O)cc3)c2c(=O)[nH]1 [Pemetrexed]"
  VALUE: -1.84
- COMPOUND: "NS(=O)(=O)c1cc(C(=O)O)c(NCc2ccco2)cc1Cl [Furosemide]"
  VALUE: 2.23
- COMPOUND: "CC1(C)O[C@@H]2[C@@H](CO[C@@]3(COS(N)(=O)=O)OC(C)(C)O[C@@H]23)O1 [Topiramate]"
  VALUE: -1.06
